- PROTOCOL NOTES: Metabolic stability in human liver microsomes
- Format: in vitro ADME
- MEASUREMENT PARAMETERS: 0.5 mg/mL microsomal protein, 1.5 μM compound, 37° C., 0-45 minutes, read-out: T1/2 in human liver microsomes

[
  {
    "COMPOUND": "Cc1ccc(-n2nc3c(N4CCC(C(=O)NCCCN(C)Cc5ccccc5)CC4)nnc(C)c3c2C)cc1 [Compound No. 1]",
    "MEASUREMENT UNIT": "h",
    "half-life at 1.5 μM": 0.0833
  },
  {
    "COMPOUND": "Cc1ccc(-n2nc3c(N4CCC(C(=O)NCCCN(C)C)CC4)nnc(C)c3c2C)cc1 [Compound No. 5]",
    "MEASUREMENT UNIT": "h",
    "half-life at 1.5 μM": 13.3
  },
  {
    "COMPOUND": "Cc1ccc(-n2nc3c(N4CCC(C(=O)NC5CN(C)C5)CC4)nnc(C)c3c2C)cc1 [Compound No. 3]",
    "MEASUREMENT UNIT": "h",
    "half-life at 1.5 μM": 6.4
  }
]

###

- MEASURED TARGET: human TLR8 (Homo sapiens, UniProt Q9NR97)
- Construct: endogenous in cells; host or cells: primary human monocytes (CD14 microbeads) from buffy coats of healthy donors
- Sequence (Q9NR97 27-1041): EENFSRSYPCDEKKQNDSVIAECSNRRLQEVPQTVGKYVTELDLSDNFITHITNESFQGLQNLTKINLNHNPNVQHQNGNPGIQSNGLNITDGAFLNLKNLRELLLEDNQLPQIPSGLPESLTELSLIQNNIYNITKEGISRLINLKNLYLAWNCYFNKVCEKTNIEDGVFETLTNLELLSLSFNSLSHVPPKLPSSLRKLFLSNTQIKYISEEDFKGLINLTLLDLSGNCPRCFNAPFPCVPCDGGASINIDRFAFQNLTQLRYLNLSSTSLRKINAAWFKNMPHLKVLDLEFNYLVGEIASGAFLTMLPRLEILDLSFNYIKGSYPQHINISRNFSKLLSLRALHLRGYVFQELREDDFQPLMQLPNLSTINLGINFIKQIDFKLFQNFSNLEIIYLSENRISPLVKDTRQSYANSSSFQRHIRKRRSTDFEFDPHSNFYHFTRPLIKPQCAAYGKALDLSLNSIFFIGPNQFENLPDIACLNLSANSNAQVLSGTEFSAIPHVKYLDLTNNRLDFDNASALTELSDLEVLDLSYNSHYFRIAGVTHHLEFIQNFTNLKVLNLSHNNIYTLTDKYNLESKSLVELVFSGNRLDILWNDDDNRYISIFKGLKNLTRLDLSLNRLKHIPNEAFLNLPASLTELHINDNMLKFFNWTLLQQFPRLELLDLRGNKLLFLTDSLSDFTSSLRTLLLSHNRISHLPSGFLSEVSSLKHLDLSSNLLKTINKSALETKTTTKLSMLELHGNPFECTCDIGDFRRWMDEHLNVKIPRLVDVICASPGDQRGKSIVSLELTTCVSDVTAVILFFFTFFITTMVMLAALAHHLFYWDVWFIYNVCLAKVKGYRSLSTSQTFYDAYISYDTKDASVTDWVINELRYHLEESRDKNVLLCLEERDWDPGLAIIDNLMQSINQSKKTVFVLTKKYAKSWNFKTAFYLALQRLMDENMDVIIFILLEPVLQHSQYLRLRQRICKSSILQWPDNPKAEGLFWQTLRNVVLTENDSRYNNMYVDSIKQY
- PROTOCOL NOTES: Inhibition of human TLR8 in human monocytes (TNF-alpha / IL-1 beta ELISA)
- Type: cell-based
- MEASUREMENT PARAMETERS: human monocytes, agonist ORN8L 100 μg/mL, TNF-alpha readout, 24 hours; read-out: Human TLR8 IC50 TNF-a
- Experimental: Example B2—Inhibition of Human TLR8 in Human Monocytes When placed in cell culture, engagement of TLR8 with an agonist leads to expression and release of cytokines into the media. Buffy coats from anonymized, healthy human donors. […] Following isolation of monocytes from buffy coats, human monocytes were plated into 96 well plates at approximately 200,000 cells per well. […] A portion of the media supernatant was analyzed for the presence of TNF-alpha and/or IL-1 beta using ELISA kits. […]

[
  {
    "MOLECULE": "Cc1ccc(-n2cc3cnnc(N4CCC(C(=O)NC5CN(C)C5)CC4)c3n2)cc1",
    "IC50": "3.84 µM"
  },
  {
    "MOLECULE": "Cc1ccc(-n2cc3cnnc(N4CCC(C(=O)N5CCC(CN(C)C)C5)CC4)c3n2)cc1 (centres unmarked)",
    "IC50": "0.98 µM"
  },
  {
    "MOLECULE": "Cc1nnc(N2CCC(C(=O)NCCCN(C)C)CC2)c2nn(-c3ccsc3)c(C)c12",
    "IC50": "≥ 20 µM"
  },
  {
    "MOLECULE": "CNC(=O)C1CCN(c2nnc(C)c3c(C)n(-c4ccc(C)cc4)nc23)CC1",
    "IC50": "≥ 20 µM"
  },
  {
    "MOLECULE": "Cc1ccc(-n2nc3c(N4CC(C(=O)NCCCN(C)C)C4)nnc(C)c3c2C)cc1",
    "IC50": "> 10 µM"
  },
  {
    "MOLECULE": "Cc1nnc(N2CCC(C(=O)NCCCN3CCN(C)CC3)CC2)c2nn(-c3ccccc3)c(C)c12 [31x]",
    "IC50": "> 10 µM"
  },
  {
    "MOLECULE": "Cc1nnc(N2CCCC(C(=O)NCCCN3CCOCC3)C2)c2nn(-c3ccccc3)c(C)c12 (centres unmarked) [49x]",
    "IC50": "3.56 µM"
  },
  {
    "MOLECULE": "Cc1ccc(-n2nc3c(N4CCC(C(=O)NCCCN5CCc6ccccc65)CC4)nnc(C)c3c2C)cc1",
    "IC50": "> 10 µM"
  },
  {
    "MOLECULE": "Cc1ccc(-n2nc3c(N4CCC(C(=O)N5CCC6(CNC6)C5)CC4)nnc(C)c3c2C)cc1",
    "IC50": "≥ 20 µM"
  },
  {
    "MOLECULE": "Cc1ccc(-n2nc3c(N4CCC(C(=O)NCCCCCCN(C)C)CC4)nnc(C)c3c2C)cc1",
    "IC50": "≥ 20 µM"
  },
  {
    "MOLECULE": "Cc1ccc(-n2nc3c(N4CCC(C(=O)NCCN(C)C)CC4)nnc(C)c3c2C)cc1 [Compound No. 21x]",
    "IC50": "> 10 µM"
  },
  {
    "MOLECULE": "Cc1ccc(-n2nc3c(N4CCC(C(=O)N[C@H]5C[C@H](N(C)C)C5)CC4)nnc(C)c3c2C)cc1 [Compound No. 12a]",
    "IC50": "> 10 µM"
  },
  {
    "MOLECULE": "Cc1ccc(-n2nc3c(N4CCC(C(=O)NCCCN(C)C)CC4)nnc(-c4ccccc4)c3c2C)cc1",
    "IC50": "≥ 20 µM"
  },
  {
    "MOLECULE": "Cc1ccc(-n2nc3c(N4CCC(C(=O)N5CCOCC5)CC4)nnc(C)c3c2C)cc1",
    "IC50": "> 10 µM"
  },
  {
    "MOLECULE": "Cc1ccc(-n2nc3c(N4CCC(C(=O)NCCCCN(C)C)CC4)nnc(C)c3c2C)cc1",
    "IC50": "2.68 µM"
  },
  {
    "MOLECULE": "Cc1ccc(-n2nc3c(N4CCC(C(=O)N5CCC6(CC5)CNC6)CC4)nnc(C)c3c2C)cc1",
    "IC50": "≥ 20 µM"
  },
  {
    "MOLECULE": "Cc1ccc(-n2nc3c(N4CCC(C(=O)NCCCCCc5ccccc5)CC4)nnc(C)c3c2C)cc1",
    "IC50": "> 10 µM"
  }
]
